Provide the recorded MIC90 for the entries that follow.
test system: Streptococcus pneumoniae; experiment: Antibacterial activity against Streptococcus pneumoniae serotype 22 by broth microdilution method; format: functional

MIC90 in this record for CO/N=C(\C(=O)N[C@@H]1C(=O)N2C(C(=O)OC(C)OC(C)=O)=C(COC(N)=O)CS[C@H]12)c1ccco1 (some centres undefined) : ≤ 0.5 µg/mL

MIC90 in this record for "CC[C@H]1OC(=O)[C@H](C)C(=O)[C@H](C)[C@@H](O[C@@H]2O[C@H](C)C[C@H](N(C)C)[C@H]2O)[C@](C)(OC)C[C@@H](C)C(=O)[C@H](C)[C@H]2N(CCCCn3cnc(-c4cccnc4)c3)C(=O)O[C@]12C" : ≤ 0.12 µg/mL

MIC90 in this record for "CC1(C)S[C@@H]2[C@H](NC(=O)Cc3ccccc3)C(=O)N2[C@H]1C(=O)O" : ≤ 0.03 µg/mL

MIC90 in this record for "CC[C@H]1OC(=O)[C@H](C)[C@@H](O[C@H]2C[C@@](C)(OC)[C@@H](O)[C@H](C)O2)[C@H](C)[C@@H](O[C@@H]2O[C@H](C)C[C@H](N(C)C)[C@H]2O)[C@](C)(O)C[C@@H](C)CN(C)[C@H](C)[C@@H](O)[C@]1(C)O" : ≤ 0.12 µg/mL
